// data source = patent US20250145711A1

Recorded measurements of % Retained 65° C., one per entry
- System: T1, TRCW5 antigen (CD3δε-Fc-Avi) (biotinylated (site not stated))
- T1 construct: also called recombinant CD3
- T1 sequence (chain, as listed by the source mutant limits assumed): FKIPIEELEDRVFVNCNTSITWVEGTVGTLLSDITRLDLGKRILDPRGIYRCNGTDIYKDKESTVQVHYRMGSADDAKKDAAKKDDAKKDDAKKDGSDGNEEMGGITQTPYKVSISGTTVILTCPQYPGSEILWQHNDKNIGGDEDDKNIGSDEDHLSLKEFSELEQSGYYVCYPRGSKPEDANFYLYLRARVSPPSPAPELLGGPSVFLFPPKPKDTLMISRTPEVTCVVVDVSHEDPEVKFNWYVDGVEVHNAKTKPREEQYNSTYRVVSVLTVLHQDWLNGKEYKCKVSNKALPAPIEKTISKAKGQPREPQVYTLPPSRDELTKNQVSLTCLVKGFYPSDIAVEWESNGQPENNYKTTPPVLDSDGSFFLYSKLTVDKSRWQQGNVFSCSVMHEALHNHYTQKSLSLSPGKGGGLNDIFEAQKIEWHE
- Method: ELISA after heat
Kindly answer with a numeric value in %, unit omitted.

| Binder | % Retained 65° C. (%) |
| --- | --- |
| CD3B2046 (scFv) scFv: QVQLVQSGAEVKKPGSSVKVSCKASGYTFTRSTMHWVKQAPGQGLEWIGYINPSSAYTNYNQKFQGRVTLTADKSTSTAYMELSSLRSEDTAVYYCASPQVHYDYNGFPYWGQGTLVTVSSGGSEGKSSGSGSESKSTGGSEIVLTQSPATLSASPGERVTLSCSASSSVSYMNWYQQKPGTSPRRWIYDSSKLASGVPARFSGSGSGRDYTLTISSLEPEDFAVYYCQQWSRNPPTFGGGTKVEIK | 30 |
| CD3B2033 (scFv) scFv: QVQLVQSGAEVKKPGSSVKVSCKASGYTFTRSTMHWVKQAPGQGLEWMGYINPSSAYTNYNQKFQGRVTLTADKSTSTAYMELSSLRSEDTAVYYCASPQVHYDYNGFPYWGQGTLVTVSSGGSEGKSSGSGSESKSTGGSEIVLTQSPATLSASPGERVTLSCSASSSVSYMNWYQQKPGTAPRRLIYDSSKLASGVPARFSGSGSGRDYTLTISSLEPEDFAVYYCQQWSRNPPTFGGGTKVEIK | 11 |
| CD3B2079 (scFv) scFv: QVQLVQSGAEVKKPGSSVKVSCKASGYTFTRSTMHWVRQAPGQGLEWIGYINPSSAYTNYAQKFQGRVTLTADKSTSTAYMELSSLRSEDTAVYYCASPQVHYDYNGFPYWGQGTLVTVSSGGSEGKSSGSGSESKSTGGSEIVLTQSPATLSASPGERVTLSCSASSSVSYMNWYQQKPGTAPRRLIYDSSKLASGVPARFSGSGSGRDYTLTISSLEPEDFAVYYCQQWSRNPPTFGGGTKVEIK | 2 |
| CD3B2036 (scFv) scFv: QVQLVQSGAEVKKPGSSVKVSCKASGYTFTRSTMHWVKQAPGQGLEWMGYINPSSAYTNYAQKFQGRVTLTADKSTSTAYMELSSLRSEDTAVYYCASPQVHYDYNGFPYWGQGTLVTVSSGGSEGKSSGSGSESKSTGGSEIVLTQSPATLSASPGERVTLSCSASSSVSYMNWYQQKPGTAPRRWIYDSSKLASGVPARFSGSGSGRDYTLTISSLEPEDFAVYYCQQWSRNPPTFGGGTKVEIK | 35 |

Now look at this one.
Which % Retained 65° C. is reported for this binder? CD3B2068 (scFv) scFv: QVQLVQSGAEVKKPGSSVKVSCKASGYTFTRSTMHWVRQAPGQGLEWMGYINPSSAYTNYNQKFQGRVTLTADKSTSTAYMELSSLRSEDTAVYYCASPQVHYDYNGFPYWGQGTLVTVSSGGSEGKSSGSGSESKSTGGSEIVLTQSPATLSASPGERVTLSCSASSSVSYMNWYQQKPGQAPRRLIYDSSKLASGVPARFSGSGSGRDYTLTISSLEPEDFAVYYCQQWSRNPPTFGGGTKVEIK
10
